test system: LoVo (colon cancer) cell line; assay: IC50 determination, MIT (tetrazolium) assay, 72 h (Example 18); assay type: cell-based, human; details: 72 hours of drug exposure
parameter_measured: pIC50
Just the number, please; pIC50 means minus log10 of the concentration in mol/L.

[Q] Using the record for O=C1[O][Pt]2([NH][C@@H]3CCCC[C@H]3[NH]2)[O]C1=O , report its pIC50.
[A] 5.49

====

tested on: HGC-27 human gastric carcinoma cell line; assay: IC50 determination, MTS assay, 72 h (Example 1); type: cell-based; conditions: Homo sapiens, 72 hours of drug exposure, read-out: IC50
parameter_measured: IC50 (µg/mL)
Report the figure in µg/mL without appending any unit label.

[Q] Using the record for CC(=O)O[C@@]12CO[C@@H]1C[C@H](O)[C@@]1(C)C(=O)[C@H](O)C3=C(C)[C@@H](OC(=O)[C@H](O)[C@@H](NC(=O)OC(C)(C)C)c4ccccc4)C[C@@](O)([C@@H](OC(=O)c4ccccc4)[C@H]21)C3(C)C [Docetaxel, docetaxel] , report its IC50.
[A] 6.54

[Q] Using the record for O=c1[nH]cc(F)c(=O)[nH]1 [5-FU, 5-fluorouracil] , report its IC50.
[A] 0.434

[Q] Using the record for COc1c(C)cc2c(c1O)[C@@H]1[C@@H]3Cc4c(OC(C)=O)c(C)c5c(c4[C@H](CNC(=O)/C=C/c4cccc(C(F)(F)F)c4)N3[C@@H](O)[C@H](C2)N1C)OCO5 [PM00104] , report its IC50.
[A] 0.00371

[Q] Using the record for COc1cccc2c1C(=O)c1c(O)c3c(c(O)c1C2=O)C[C@@](O)(C(=O)CO)C[C@@H]3O[C@H]1C[C@H](N)[C@H](O)[C@H](C)O1 [Doxorubicin, doxorubicin] , report its IC50.
[A] 0.177

====

tested on: BT-474 (breast cancer) cell line; assay: IC50 determination, MIT (tetrazolium) assay, 72 h (Example 18); assay type: cell-based; settings: Homo sapiens, BT-474, 72 h
parameter_measured: pIC50
Just the number, please; pIC50 means minus log10 of the concentration in mol/L.

cpd_smiles: COc1c(C)cc2c(c1O)[C@@H]1[C@@H]3Cc4c(OC(C)=O)c(C)c5c(c4[C@H](CNC(=O)/C=C/c4cccc(C(F)(F)F)c4)N3[C@@H](O)[C@H](C2)N1C)OCO5
subject_of_test: BT-474 (breast cancer) cell line
pIC50: 9.00

Now let's try a different one.
[Q] Using the record for CC(=O)O[C@H]1C(=O)[C@@]2(C)[C@H]([C@H](OC(=O)c3ccccc3)[C@]3(O)C[C@H](OC(=O)[C@H](O)[C@@H](NC(=O)c4ccccc4)c4ccccc4)C(C)=C1C3(C)C)[C@]1(OC(C)=O)CO[C@@H]1C[C@@H]2O , report its pIC50.
[A] 8.77
